ASSAY TARGET: Adenosine A1 receptor (Rattus norvegicus) (UniProt P25099)
MEASUREMENT DESCRIPTION: Selectivity for rat adenosine A3 and rat adenosine A1 receptors
PROPERTY NAME: Selectivity
Could you respond with only the numeric value?

# count of solved cases: 4
CCOC(=O)c1sc(S(C)(=O)=O)c2c1CC(C)(C)CC2=O: 1.58
CCOC(=O)CSc1sc(C(=O)OCC)c2c1C(=O)CCC2: 4.59
CSc1sc(C(=O)NN)c2c1C=CCC2: 0.25
CCOC(=O)c1sc(SC)c2c1CCCC2O (stereo not given): 0.84

Alright, here's another compound for you.
Per the records, this compound ( "CCOC(=O)c1sc(SC)c2c1CCCC2=O" ) has Selectivity equal to 7.88

----------
ASSAY TARGET: Adenosine receptor A2a (Rattus norvegicus, UniProt P30543)
Sequence (P30543 whole entry): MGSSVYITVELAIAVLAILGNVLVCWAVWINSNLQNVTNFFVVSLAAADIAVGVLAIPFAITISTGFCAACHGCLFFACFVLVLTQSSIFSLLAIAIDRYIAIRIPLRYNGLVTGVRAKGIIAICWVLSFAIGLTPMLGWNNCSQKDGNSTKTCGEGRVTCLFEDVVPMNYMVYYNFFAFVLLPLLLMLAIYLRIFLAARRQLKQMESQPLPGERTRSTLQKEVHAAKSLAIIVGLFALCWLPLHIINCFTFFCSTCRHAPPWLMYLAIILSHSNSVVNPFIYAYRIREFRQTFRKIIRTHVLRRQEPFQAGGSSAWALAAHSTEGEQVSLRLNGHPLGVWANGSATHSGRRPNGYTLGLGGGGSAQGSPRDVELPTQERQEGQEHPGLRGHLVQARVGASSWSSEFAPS
PROPERTY NAME: pKi
To interpret pKi, take it as minus log10 of a concentration measured in moles per litre.

Entry "CCOC(=O)c1sc(SCc2ccccc2)c2c1CCCC2=O" ; assay system Adenosine receptor A2a (Rattus norvegicus, UniProt P30543); pKi recorded at 5.87

----------
ASSAY TARGET: Adenosine receptors; A1 & A2a (Rattus norvegicus) (UniProt P25099+P30543)
MEASUREMENT DESCRIPTION: Selectivity for adenosine A2a and A1 receptors
Format: protein assay
Selectivity under 3 gets Satisfied, anything at or over 3 gets Not satisfied.

# input Determine whether this compound shows Selectivity lower than 3 (ties excluded): "C=CCSc1sc(C(=O)OCC)c2c1C(=O)CCC2"
# output Not satisfied

# input # check: Selectivity < 3 for "CCOC(=O)c1sc(NN)c2c1CCCC2=O"
# output Satisfied

----------
Below, each entry is listed with its recorded Ki.
ASSAY TARGET: Adenosine receptor A3 (Rattus norvegicus, UniProt P28647)
Sequence (P28647 whole entry): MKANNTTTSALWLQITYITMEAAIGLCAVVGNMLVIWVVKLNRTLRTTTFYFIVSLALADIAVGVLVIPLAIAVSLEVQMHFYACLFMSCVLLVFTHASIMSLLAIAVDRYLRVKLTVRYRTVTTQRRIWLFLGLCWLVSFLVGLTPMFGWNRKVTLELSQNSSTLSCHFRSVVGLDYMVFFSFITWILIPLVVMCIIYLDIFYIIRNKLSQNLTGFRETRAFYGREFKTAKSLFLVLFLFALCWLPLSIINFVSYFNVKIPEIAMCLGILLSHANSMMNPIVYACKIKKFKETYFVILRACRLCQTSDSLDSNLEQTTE
MEASUREMENT DESCRIPTION: Displacement of [125I]AB-MECA from rat Adenosine A3 receptor expressed in CHO cell membrane
Format: cell membranes
Entry rule: numbers only, all in µM.

Here is how some molecules turned out for Ki.
CCOC(=O)c1sc(SC)c2c1CCCC2=O: 15.2
CCOC(=O)c1sc(SC)c2c1CCCC2O (stereo not drawn): 15.4

# next molecule below
Per the record, "CCOC(=O)c1sc(S(C)(=O)=O)c2c1CC(C)(C)CC2=O" has Ki of 51.8

----------
Assay system Adenosine receptor A2a (Rattus norvegicus, UniProt P30543); read-out recorded as Ki.

In the examples that follow, each entry is paired with its recorded Ki.
CCCSc1sc(C(=O)OCC)c2c1C(=O)CCC2: 4.69 µM
Nc1nc2ccccc2n2cc(-c3ccccc3)nc12: 0.29 µM
Nc1nc2ccc(Cl)cc2n2c(-c3ccccc3)nnc12: 0.021 µM
CCOC(=O)c1sc(SC(C)C)c2c1CCCC2=O: 4.63 µM
O=c1c(-c2ccc(O)cc2)coc2cc(O)cc(O)c12: 36 µM

So for "CCCCSc1sc(C(=O)OCC)c2c1C(=O)CCC2" , the logged Ki turned out to be 15.6 µM

Note to self: Ki recorded for "CCOC(=O)c1sc(SCc2ccccc2)c2c1CCCC2=O" was 1.36 µM

----------
ASSAY TARGET: UniProt:P0DMS8
Sequence (P0DMS8 whole entry): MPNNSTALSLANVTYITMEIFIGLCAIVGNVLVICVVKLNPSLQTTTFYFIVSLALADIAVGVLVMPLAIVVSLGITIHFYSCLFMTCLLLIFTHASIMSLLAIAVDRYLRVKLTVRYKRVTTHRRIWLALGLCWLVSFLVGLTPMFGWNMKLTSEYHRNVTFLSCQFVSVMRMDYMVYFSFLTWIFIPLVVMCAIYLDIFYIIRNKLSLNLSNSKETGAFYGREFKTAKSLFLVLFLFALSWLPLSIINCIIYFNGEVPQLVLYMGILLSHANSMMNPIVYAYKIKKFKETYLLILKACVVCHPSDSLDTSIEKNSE
PROPERTY NAME: Ki (µM)
Supply the numeric figure in µM, leaving out any unit text.

The recorded Ki with UniProt:P0DMS8 for "O=C(O)c1sc(SCc2ccccc2)c2c1CCCC2=O" was 117

----------
Measured inhibition, listed per entry.
ASSAY TARGET: Adenosine receptor A2a (Rattus norvegicus)
MEASUREMENT DESCRIPTION: Displacement [3H]CGS-21680 from Adenosine A2A receptor in rat striatal membrane
Assay type: cell membranes
Set-up: concentration or dose not given beside the values
CONDITION NOTES: Striatum, concentration not given here

In the examples that follow, each entry is paired with its recorded inhibition.
CSc1sc(C(=O)NN)c2c1C=CCC2: < 10%
CCOC(=O)c1sc(SCc2ccccc2)c2c1CC(C)(C)CC2=O: 34%
CCOC(=O)c1sc(SC)c2c1CCC/C2=N/OC: 22%
CCOC(=O)c1sc(S(C)(=O)=O)c2c1CC(C)(C)CC2=O: 13%
CSc1scc2c1C(=O)CCC2: < 10%

Okay, now this compound:
Looking up CSc1sc(C(=O)NN)c2c1C(O)CCC2 (stereo unspecified) , I see its inhibition listed as 28.9%

----------
ASSAY TARGET: Adenosine receptor A1 (Rattus norvegicus)
Sequence (P25099 whole entry): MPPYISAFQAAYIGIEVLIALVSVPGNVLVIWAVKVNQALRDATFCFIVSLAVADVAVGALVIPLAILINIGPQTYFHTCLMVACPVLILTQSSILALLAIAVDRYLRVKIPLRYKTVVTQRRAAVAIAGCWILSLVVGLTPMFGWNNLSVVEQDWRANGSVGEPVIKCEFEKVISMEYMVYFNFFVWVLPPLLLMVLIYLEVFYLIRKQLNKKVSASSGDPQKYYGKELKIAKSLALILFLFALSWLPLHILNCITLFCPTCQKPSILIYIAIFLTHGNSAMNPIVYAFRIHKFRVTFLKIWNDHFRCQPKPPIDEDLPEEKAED
PROPERTY NAME: pKi
// pKi: -log10(molar conc.)

// solved cases for pKi follow
CCOC(=O)c1sc(SCc2ccccc2)c2c1CC(C)(C)CC2=O: 6.25
CCOC(=O)c1sc(SC)c2c1CCC/C2=N/OC: 4.16
CCOC(=O)c1sc(NN)c2c1CCCC2=O: 4.76
CCCSc1sc(C(=O)OCC)c2c1C(=O)CCC2: 5.90
CCOC(=O)c1sc(S(C)(=O)=O)c2c1CC(C)(C)CC2=O: 4.49

Documented pKi of "COc1cc(-c2oc3c(OC)cc(CCCO)cc3c2C=O)ccc1O" : 7.77

Sure, the documented pKi for "Nc1nc2ccccc2n2cc(-c3ccccc3)nc12" is 7.47

What the record says about CSc1sc(C(=O)NN)c2c1C(O)CCC2 (stereo unspecified) : pKi is 4.15

# molecule "O=C(O)c1sc(SCc2ccccc2)c2c1CCCC2=O" ; its pKi = 4.30

Item: "CCOC(=O)CSc1sc(C(=O)OCC)c2c1C(=O)CCC2" | pKi: 5.65

Quick note, pKi for "CSc1sc(C(=O)NN)c2c1C=CCC2" landed at 4.29

----------
Selectivity listing for selected molecules.
ASSAY TARGET: Adenosine receptors; A1 & A2a (Rattus norvegicus) (UniProt P25099+P30543)
MEASUREMENT DESCRIPTION: Selectivity for adenosine A2a and A1 receptors
Type: protein assay

Worked examples, 5 molecules total:
CSc1sc(C(=O)NN)c2c1C(O)CCC2 (stereo not given): > 1.4
CCOC(=O)c1sc(SCc2ccccc2)c2c1CCCC2=O: 1.9
CCOC(=O)c1sc(SC(C)CC)c2c1CC(C)(C)CC2=O (stereo not given): 29.1
CSc1scc2c1C(=O)CCC2: > 1
CCOC(=O)c1sc(SC)c2c1CCC/C2=N/OC: > 1.4

# context switch: different molecule, same Selectivity
"CCOC(=O)CSc1sc(C(=O)OCC)c2c1C(=O)CCC2" yielded Selectivity of 11.5

----------
ASSAY TARGET: Adenosine receptor A2a (Rattus norvegicus, UniProt P30543)
pKi: −log10 of the molar value.
criterion met means recorded pKi is 5 or above; criterion not met means it is below 5.

These recorded examples may help you get a feel for the data.
CCOC(=O)CSc1sc(C(=O)OCC)c2c1C(=O)CCC2: criterion not met
Nc1nc2ccc(Cl)cc2c2nc(-c3ccco3)nn12 [CGS-15943]: criterion met
CCOC(=O)c1sc(SC)c2c1CCCC2O (centres undefined): criterion not met
CCOC(=O)c1sc(NN)c2c1CCCC2=O: criterion not met
CCOC(=O)c1sc(SC)c2c1CCCC2=O: criterion met
CCOC(=O)c1sc(SC(C)CC)c2c1CC(C)(C)CC2=O (centres undefined): criterion not met
C=CCSc1sc(C(=O)OCC)c2c1C(=O)CCC2: criterion met
CCOC(=O)c1sc(SCC)c2c1CC(C)(C)CC2=O: criterion not met

# input Kindly determine if pKi recorded for "O=C(O)c1sc(SCc2ccccc2)c2c1CCCC2=O" is above or exactly 5.
# output criterion not met
